# Test system: 233499-124-R-J3-PDC complex spheroid growth;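 also: spheroids exposed to agents for seven days before reading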
# PROCEDURE DETAILS: Anticancer human tumor 233499-124-R-J3-PDC patient-derived colon adenocarcinoma cell line growth inhibition [AhR]
# CONDITION: curve of first compound; second compound 0.316 µM
OBSERVED PROPERTY: IC50 (nM)

# COMPOUND, EXPERIMENTAL SYSTEM, UNITS TEXT, MEASURED VALUE
records = [
    ("O=C(C=Cc1cccc(S(=O)(=O)Nc2ccccc2)c1)NO + CC(CO)NC(=O)c1cc(-c2ccc(Cl)cc2)nn(-c2cnn(C)c2)c1=O", "233499-124-R-J3-PDC complex spheroid growth", "nM", 2910),
]

1: CC1COCCN1c1cc(-c2ccnn2C)c2ccnc(-c3ccn[nH]3)c2n1 (centres undefined) + Cc1cncc(-c2nc(NCCc3c[nH]c4ccccc34)c3ncn(C(C)C)c3n2)c1
2: Nc1ccn(C2OC(CO)C(O)C2(F)F)c(=O)n1 (centres undefined) + Cc1cncc(-c2nc(NCCc3c[nH]c4ccccc34)c3ncn(C(C)C)c3n2)c1
3: COc1cccc2c1C(=O)c1c(O)c3c(c(O)c1C2=O)CC(O)(C(=O)CO)CC3OC1CC(N)C(O)C(C)O1 (centres undefined) + Cc1ccccc1N=Nc1ccc(NC(=O)c2ccnn2C)c(C)c1
Q: Sort by IC50, descending. Give your ranking as a list of the labels in the requested order.
A: 3, 2, 1

1: Nc1ccccc1NC(=O)c1ccc(CNC(=O)OCc2cccnc2)cc1 + CC(CO)NC(=O)c1cc(-c2ccc(Cl)cc2)nn(-c2cnn(C)c2)c1=O
2: CC1COCCN1c1cc(-c2ccnn2C)c2ccnc(-c3ccn[nH]3)c2n1 (centres undefined) + CC(CO)NC(=O)c1cc(-c2ccc(Cl)cc2)nn(-c2cnn(C)c2)c1=O
3: CC(C)CC(NC(=O)C(Cc1ccccc1)NC(=O)c1cnccn1)B(O)O (centres undefined) + Cc1ccccc1N=Nc1ccc(NC(=O)c2ccnn2C)c(C)c1
Q: Exam item: list the entries in increasing order of IC50. Give your ranking as a list of the labels in the requested order.
A: 3, 2, 1
(3: 16.5 nM, 2: 609 nM, 1: 2240 nM)
